B1: CSNK1G1 (parent)
chain: GSLPWQGLKADTLKERYQKIGDTK

# Variants of: B1
# TEST: protein stability index of a GFP-peptide fusion (GPS, HEK-293T) (PSI 1-6); higher = more stable;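 further: lentivirally expressed fusions sorted by FACS into six bins by GFP to DsRed ratio, PSI derived from sequencing read proportions per bin multiplied by bin number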
# COND: c terminus: a fixed tail appended
METRIC: protein stability index
In your answer, state the number alone without any accompanying words.

| MUTATION ANNOTATION | protein stability index |
| --- | --- |
| K24F | 3 |
| D11V | 2.8 |
| K9L | 3.18 |
| L8E | 4.44 |

// protein stability index lookup, variant = D22Q , result: 3.82

// protein stability index lookup, variant = Q18T , result: 4.26
